# Lookup of reported pIC50 keyed by entry
assay.protocol: Antiproliferative activity against human PC3 cells after 48 hrs by MTT assay
Type: functional, cell-based
condition.set: PC-3, 48 h
API: returns pIC50 as number; meaning -log10 of concentration in mol/L.

compound | quantity.name | result.number
C[C@]12CCC(=O)C(O)=C1CC[C@@H]1[C@@H]2CC[C@]2(C)C(=O)CC[C@@H]12 [FORMESTANE] | pIC50 | 4.34
C[C@]1(CC#N)CC[C@@H]2c3ccc(O)cc3CC[C@H]2[C@@H]1CC#N | pIC50 | 4.95
C[C@]1(CC#N)CC[C@H]2[C@@H](CCC3=C(O)C(=O)CC[C@@]32C)[C@@H]1CC#N | pIC50 | 5.06
C[C@]1(CC#N)CC[C@H]2[C@@H](CCC3=CC(=O)C=C[C@@]32C)[C@@H]1CC#N | pIC50 | 4.15
C[C@]1(CC#N)CC[C@H]2[C@@H](CCC3=CC(=O)CC[C@@]32C)[C@@H]1CC#N | pIC50 | 5.08

COc1cccc2c1C(=O)c1c(O)c3c(c(O)c1C2=O)C[C@@](O)(C(=O)CO)C[C@@H]3O[C@H]1C[C@H](N)[C@H](O)[C@H](C)O1 [DOXORUBICIN] has a reported pIC50 of 4.02

According to the records, this compound C[C@]1(CC#N)CC[C@H]2[C@@H](CC=C3C[C@@H](O)CC[C@@]32C)[C@@H]1CC#N displays pIC50 of 4.72
